Source of measurements: patent US20250017928A1

# run.description: Aqueous solubility of Compound (I) and its salts
# Type: physicochemical
# condition.summary: aqueous medium; free base

# structure.smiles.string, solubility, µg/mL
measured = [
    ("COc1ccc(CNc2nc(N3CCC[C@H]3COC(=O)CCCCCO[N+](=O)[O-])ncc2C(=O)NCc2ncccn2)cc1Cl", 13),
]
